Recorded inhibition by entry
# Test System: Proteasome assembly chaperone 3 (Homo sapiens)
# Sequence (whole entry): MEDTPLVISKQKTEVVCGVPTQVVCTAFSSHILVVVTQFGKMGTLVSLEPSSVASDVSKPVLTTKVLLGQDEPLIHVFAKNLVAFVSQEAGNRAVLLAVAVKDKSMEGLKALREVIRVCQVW
# Measurement Notes: Inhibition of N-terminal mKG-labeled PAC3/C-terminal mKG-labeled PAC3 homodimer (unknown origin) protein-protein interaction at 0.1 uM preincubated for 1 hr with protein followed by another protein addition and measured after 17 hrs by fluorescence based protein-fragment complementation assay relative to control

# Input Smiles, inhibition [%]
data = [
    ("COc1c(C)c(OC(=O)c2ccc(Oc3cccc(C(=O)Oc4c(C)c(C)c(C(=O)Oc5c(C)c(C)c(C(=O)O)c(OC)c5C)c(OC)c4C)c3C)cc2)c(C)c(C)c1C(=O)O", 4),
    ("COc1c(C)c(OC(=O)c2c(C)c(C)c(OC[C@@H]3OC(=O)O[C@H]3COc3c(C)c(C)c(C(=O)Oc4c(C)c(C)c(C(=O)O)c(OC)c4C)c(OC)c3C)c(C)c2OC)c(C)c(C)c1C(=O)O", 2),
    ("COc1c(C)c(OC(=O)c2c(C)c(C)c(OC/C=C/COc3c(C)c(C)c(C(=O)Oc4c(C)c(C)c(C(=O)O)c(OC)c4C)c(OC)c3C)c(C)c2OC)c(C)c(C)c1C(=O)O", 7),
    ("COc1c(C)c(OC(=O)c2c(C)c(C)c(OC(=O)CCC(=O)Oc3c(C)c(C)c(C(=O)Oc4c(C)c(C)c(C(=O)O)c(OC)c4C)c(OC)c3C)c(C)c2OC)c(C)c(C)c1C(=O)O", 0),
    ("COc1c(C)c(OC(=O)c2c(C)c(C)c(OCc3cccc(COc4c(C)c(C)c(C(=O)Oc5c(C)c(C)c(C(=O)O)c(OC)c5C)c(OC)c4C)c3Br)c(C)c2OC)c(C)c(C)c1C(=O)O", 26),
]

###

# Test System: Proteasome assembly chaperone 3 (Homo sapiens) (UniProt Q9BT73)
# Sequence (whole entry): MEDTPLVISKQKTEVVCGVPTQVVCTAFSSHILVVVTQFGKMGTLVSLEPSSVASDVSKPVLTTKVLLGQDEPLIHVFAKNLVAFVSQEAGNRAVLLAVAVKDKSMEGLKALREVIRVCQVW
# Measurement Notes: Inhibition of N-terminal mKG-labeled PAC3/C-terminal mKG-labeled PAC3 homodimer (unknown origin) protein-protein interaction at 1 uM preincubated for 1 hr with protein followed by another protein addition and measured after 17 hrs by fluorescence based protein-fragment complementation assay relative to control
Each record here notes measured inhibition.
Parameter: inhibition (%)

# Input Smiles, Observed
data = [
    ("COCOC(=O)c1c(C)c(C)c(OC(=O)c2c(C)c(C)c(OC(=O)c3c(C)c(C(=O)Oc4c(C)c(C)c(C(=O)Oc5c(C)c(C)c(C(=O)OCOC)c(OC)c5C)c(OC)c4C)c(OC)c(C)c3OC)c(C)c2OC)c(C)c1OC", 5),
    ("COc1c(C)c(OC(=O)c2ccc(Oc3cccc(C(=O)Oc4c(C)c(C)c(C(=O)Oc5c(C)c(C)c(C(=O)O)c(OC)c5C)c(OC)c4C)c3C)c(C)c2)c(C)c(C)c1C(=O)O", 34),
    ("COc1c(C)c(OC(=O)c2c(C)c(C)c(OC(=O)c3c(C)c(C(=O)Oc4c(C)c(C)c(C(=O)Oc5c(C)c(C)c(C(=O)O)c(OC)c5C)c(OC)c4C)c(O)c(C)c3O)c(C)c2OC)c(C)c(C)c1C(=O)O", 17),
    ("COc1c(C)c(OC(=O)c2ccc(Oc3cccc(C(=O)Oc4c(C)c(C)c(C(=O)Oc5c(C)c(C)c(C(=O)O)c(OC)c5C)c(OC)c4C)c3)cc2)c(C)c(C)c1C(=O)O", 37),
    ("COc1c(C)c(OC(=O)c2ccc(Oc3cccc(C(=O)Oc4c(C)c(C)c(C(=O)Oc5c(C)c(C)c(C(=O)O)c(OC)c5C)c(OC)c4C)c3C)cc2)c(C)c(C)c1C(=O)O", 40),
    ("COc1c(C)c(OC(=O)c2c(C)c(C)c(OC(=O)c3c(C)c(C(=O)Oc4c(C)c(C)c(C(=O)Oc5c(C)c(C)c(C(=O)O)c(OC)c5C)c(OC)c4C)c(OC)c(C)c3OC)c(C)c2OC)c(C)c(C)c1C(=O)O", 49),
    ("COc1c(C)c(OC(=O)c2c(C)c(C)c(OC/C=C/COc3c(C)c(C)c(C(=O)Oc4c(C)c(C)c(C(=O)O)c(OC)c4C)c(OC)c3C)c(C)c2OC)c(C)c(C)c1C(=O)O", 30),
    ("COc1c(C)c(O)c(C)c(C)c1C(=O)Oc1c(C)c(C)c(C(=O)O)c(OC)c1C", 9),
    ("COCOC(=O)c1c(C)c(C)c(OC(=O)c2c(C)c(C)c(OCc3cccc(COc4c(C)c(C)c(C(=O)Oc5c(C)c(C)c(C(=O)OCOC)c(OC)c5C)c(OC)c4C)c3Br)c(C)c2OC)c(C)c1OC", 0),
    ("COc1c(C)c(OC(=O)c2c(C)c(C)c(OC[C@@H]3OC(=O)O[C@H]3COc3c(C)c(C)c(C(=O)Oc4c(C)c(C)c(C(=O)O)c(OC)c4C)c(OC)c3C)c(C)c2OC)c(C)c(C)c1C(=O)O", 5),
    ("COc1c(C)c(OC(=O)c2c(C)c(C)c(OC[C@H](O)[C@@H](O)COc3c(C)c(C)c(C(=O)Oc4c(C)c(C)c(C(=O)O)c(OC)c4C)c(OC)c3C)c(C)c2OC)c(C)c(C)c1C(=O)O", 17),
    ("COc1c(C)c(OC(=O)c2c(C)c(C)c(OCc3cccc(COc4c(C)c(C)c(C(=O)Oc5c(C)c(C)c(C(=O)O)c(OC)c5C)c(OC)c4C)c3Br)c(C)c2OC)c(C)c(C)c1C(=O)O", 38),
    ("COc1c(C)c(OC(=O)c2c(C)c(C)c(OCc3cccc(COc4c(C)c(C)c(C(=O)Oc5c(C)c(C)c(C(=O)O)c(OC)c5C)c(OC)c4C)n3)c(C)c2OC)c(C)c(C)c1C(=O)O", 43),
    ("COc1c(C)c(OC(=O)c2c(C)c(C)c(OC(=O)CCC(=O)Oc3c(C)c(C)c(C(=O)Oc4c(C)c(C)c(C(=O)O)c(OC)c4C)c(OC)c3C)c(C)c2OC)c(C)c(C)c1C(=O)O", 9),
    ("COc1c(C)c(OC(=O)c2c(C)c(C)c(OC(=O)c3c(C)c(Oc4c(C)c(C)c(C(=O)Oc5c(C)c(C)c(C(=O)O)c(OC)c5C)c(OC)c4C)c(O)c(C)c3O)c(C)c2OC)c(C)c(C)c1C(=O)O", 94),
]

###

# Test System: Proteasome assembly chaperone 3 (Homo sapiens)
# Measurement Notes: Inhibition of PAC3 homodimer (unknown origin) protein-protein interaction
Parameter: IC50

# Input Smiles, Parameter, Observed
data = [
    ("COc1c(C)c(OC(=O)c2c(C)c(C)c(OC(=O)c3c(C)c(Oc4c(C)c(C)c(C(=O)Oc5c(C)c(C)c(C(=O)O)c(OC)c5C)c(OC)c4C)c(O)c(C)c3O)c(C)c2OC)c(C)c(C)c1C(=O)O", "IC50", "0.02 µM"),
    ("COc1c(C)c(OC(=O)c2c(C)c(C)c(OC(=O)c3c(C)cc(O)c(Cc4c(C)c(C(=O)Oc5c(C)c(C)c(C(=O)Oc6c(C)c(C)c(C(=O)O)c(OC)c6C)c(OC)c5C)c(O)c(C)c4O)c3O)c(C)c2OC)c(C)c(C)c1C(=O)O", "IC50", "> 250 µM"),
    ("COc1c(C)c(OC(=O)c2c(C)c(C)c(OC(=O)C3=C(C)[C@@](C)(O)[C@@]4(O)Oc5c(C)c(OC)c(C(=O)Oc6c(C)c(C)c(C(=O)O)c(OC)c6C)c(C)c5C[C@@]4(C)C3=O)c(C)c2OC)c(C)c(C)c1C(=O)O", "IC50", "> 250 µM"),
]

###

# Test System: PAC1-PAC2 complex (Homo sapiens) (UniProt O95456+Q969U7)
# Measurement Notes: Inhibition of N-terminal mKG-labeled PAC1/C-terminal mKG-labeled PAC2 (unknown origin) protein-protein interaction at 10 uM preincubated for 1 hr with protein followed by another protein addition and measured after 17 hrs by fluorescence based protein-fragment complementation assay relative to control
# Format: protein-complex assay
Parameter: inhibition (%)

# Input Smiles, U, Observed
data = [
    ("COc1c(C)c(OC(=O)c2c(C)c(C)c(OCc3cccc(COc4c(C)c(C)c(C(=O)Oc5c(C)c(C)c(C(=O)O)c(OC)c5C)c(OC)c4C)n3)c(C)c2OC)c(C)c(C)c1C(=O)O", "%", 40),
    ("COc1c(C)c(OC(=O)c2c(C)c(C)c(OCc3cccc(COc4c(C)c(C)c(C(=O)Oc5c(C)c(C)c(C(=O)O)c(OC)c5C)c(OC)c4C)c3Br)c(C)c2OC)c(C)c(C)c1C(=O)O", "%", 57),
    ("COc1c(C)c(OC(=O)c2c(C)c(C)c(OC(=O)c3c(C)c(C(=O)Oc4c(C)c(C)c(C(=O)Oc5c(C)c(C)c(C(=O)O)c(OC)c5C)c(OC)c4C)c(OC)c(C)c3OC)c(C)c2OC)c(C)c(C)c1C(=O)O", "%", 38),
]
